# TEST_TARGET: Purified human AGT with a (His)6 tag (Homo sapiens, UniProt P16455)
# Construct: (His)6
# Sequence (P16455 1-207): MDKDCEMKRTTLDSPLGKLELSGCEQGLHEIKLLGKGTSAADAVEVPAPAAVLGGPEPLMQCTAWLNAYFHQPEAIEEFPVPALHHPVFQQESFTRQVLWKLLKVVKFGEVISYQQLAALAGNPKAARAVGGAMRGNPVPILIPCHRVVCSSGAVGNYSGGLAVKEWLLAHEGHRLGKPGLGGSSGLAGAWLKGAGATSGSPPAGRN
# EXPERIMENTAL_DETAILS: In vitro binding of radiolabeled FBG or IBG to purified AGT (TCA precipitation)
pIC50: −log10 of the molar value.
RESULT_TYPE: pIC50

Consider Nc1nc(OCc2cccc(I)c2)c2[nH]cnc2n1 . Its measured pIC50 is ~5.22

The reported measurements were obtained from patent US20120270812A1.
